# System: MCF7 breast
# assayProcedure: NCI tumour cell line growth inhibition, 48 h
reportedProperty: TGI

// known answers, use as guide
>  <compound>
COc1cc2c(c(OC)c1OC)-c1ccc(SC)c(=O)cc1[C@@H](NC1OC(CO)C(O)C(O)C1O)CC2 (stereo partly drawn)

>  <result>
> 100 µM

$$$$
>  <compound>
COc1ccc2cc(-c3c(-c4ccncc4)nc(-c4ccc(S(C)=O)cc4)n3C)ccc2c1 (stereo not drawn)

>  <result>
> 25 µM

$$$$
>  <compound>
CCNC1=C(NC(=O)CC)C(=O)c2ccccc2C1=O

>  <result>
> 100 µM

$$$$
>  <compound>
CN(C)c1ccc(N=Nc2ccncc2)cc1

>  <result>
> 100 µM

$$$$
>  <compound>
OC1(c2ccccc2)CSC2=Nc3ccccc3C3CCN1N23 (stereo not drawn)

>  <result>
46 µM

$$$$

Need TGI, item Cc1ccc(NC(=O)c2ccccc2C(=O)O)cc1C
> 100 µM

Need TGI, item COC(=O)C1=C(C)N2[C@H](C(=O)O)CO[C@@]2(C)[C@H](C(=O)OC)[C@H]1c1cccc([N+](=O)[O-])c1
> 100 µM

Need TGI, item Brc1c(C#CCC2CCCCC2)ccc(C#CCC2CCCCC2)c1Br
> 100 µM

---

# Test system: NCI-H460 lung
# assayProcedure: NCI tumour cell line growth inhibition, 48 h
TGI values for the compounds below.

// known answers, use as guide
>  <compound>
CCOC1=C2N=C(Cc3ccccc3F)N=C2C(=O)c2ccccc21

>  <targetOrSystem>
NCI-H460 lung

>  <result>
> 100 µM

$$$$
>  <compound>
c1ccc2c3c([nH]c2c1)C1CCCN1CC3 (stereo unspecified)

>  <targetOrSystem>
NCI-H460 lung

>  <result>
> 10 µM

$$$$

API: value(readout=TGI, system=NCI-H460 lung) for record Cc1n[nH]c(=O)n1/N=C/c1ccc([N+](=O)[O-])o1
49.4 µM

API: value(readout=TGI, system=NCI-H460 lung) for record O=C(Nc1cccc(F)c1)c1cc2ccc(O)cc2oc1=Nc1ccccc1F
> 100 µM

API: value(readout=TGI, system=NCI-H460 lung) for record Cc1cccc(NC(=O)c2sc3nc4c(cc3c2N)CN(Cc2ccccc2)CC4)c1C
> 50 µM

API: value(readout=TGI, system=NCI-H460 lung) for record C[C@H]1C=C2[C@@H]3CC(C)(C(=O)O)CC[C@]3(C)CC[C@]2(C)[C@]2(C)CC[C@H]3C(C)(C)[C@@H](OC(=O)c4cccc5c(=O)c6ccccc6[nH]c45)CC[C@]3(C)[C@@H]12 (stereo partly specified)
> 100 µM

API: value(readout=TGI, system=NCI-H460 lung) for record O=C1NC(=O)C(c2cccc(Cl)c2)=C1Nc1ccc(O)c(Cl)c1
> 25 µM

---

# Test system: IGROV1 ovarian
# assayProcedure: NCI tumour cell line growth inhibition, 48 h; in the data active means GI50 below about 0.43 µM; inactive means the rest
Give your call using only these classes: active, inactive

# count of solved cases: 5
>  <molecule>
CCn1c2ccccc2c2cc(/C=C(/C#N)C(N)=O)ccc21

>  <targetOrSystem>
IGROV1 ovarian

>  <answerLabel>
inactive

$$$$
>  <molecule>
CC(C)=CCC/C(C)=C/CC/C(C)=C/CC/C=C(\C)CC/C=C(\C)CCC(=O)Nc1ccn(C2OC(CO)C(O)C2(F)F)c(=O)n1 (stereo not drawn)

>  <targetOrSystem>
IGROV1 ovarian

>  <answerLabel>
active

$$$$
>  <molecule>
C#CCOc1cccc(Nc2ncnc3c(NC(=O)CCl)cccc23)c1

>  <targetOrSystem>
IGROV1 ovarian

>  <answerLabel>
inactive

$$$$
>  <molecule>
CC1(C)N=C(N)N=C(N)N1c1ccc(CCCCc2ccc(S(=O)(=O)F)cc2)c(Cl)c1

>  <targetOrSystem>
IGROV1 ovarian

>  <answerLabel>
active

$$$$
>  <molecule>
COC1O[C@@H]2C[C@H]3C(C)(C)CCC[C@]3(C)C3=CCCC1[C@@]32C (stereo partly drawn)

>  <targetOrSystem>
IGROV1 ovarian

>  <answerLabel>
inactive

$$$$

What did this assay record as the result for CCN1C(=O)N(CC)C2C1NN=c1s/c(=C\c3ccccc3Br)c(=O)n12 (stereo not drawn) ?
active

What did this assay record as the result for COc1ccc(/C=N/NC(=O)Cn2c(-c3ccc(S(C)(=O)=O)cc3)nc3cc(Cl)ccc32)cc1 ?
inactive

What did this assay record as the result for Cn1cc(-c2nonc2-c2cn(C)c3ccccc23)c2ccccc21 ?
inactive

What did this assay record as the result for C/C1=C\[C@@H](O)C(=O)/C=C/C=C\c2csc(n2)[C@@H](C)NC(=O)C[C@@]2(CC1)S(=O)SC(=O)[C@]2(C)O (stereo partly drawn) ?
active

What did this assay record as the result for COC(=O)c1nc(-c2ccccc2)oc1S(=O)(=O)n1nc(C)cc1N ?
inactive

What did this assay record as the result for COc1ccc(C2[C@@H](Cl)C(=O)N2c2cc(OC)c(OC)c(OC)c2)cc1Cl (stereo partly drawn) ?
active

What did this assay record as the result for O=c1[nH]cnc2c(C3NC(CO)C(O)C3O)c[nH]c12 (stereo not drawn) ?
inactive

What did this assay record as the result for Cc1c(C2=C(c3cn(C)c4ccccc34)C(=O)NC2=O)c2ccccc2n1C ?
inactive

---

GI50 values for the molecules below.
# Tested on: HCC-2998 colon
# assayProcedure: NCI tumour cell line growth inhibition, 48 h

>  <compoundStructureString>
COc1ccc(C(=O)N2c3ccccc3Sc3ccccc32)c(OC)c1

>  <GI50>
1.49 µM

$$$$
>  <compoundStructureString>
CC(C)(C)CN1CCn2c(nc3c(N)nccc32)S1

>  <GI50>
13.7 µM

$$$$

Need GI50, item O=C1NC(=O)C(c2cccc(Cl)c2)=C1Nc1ccc(O)c(Cl)c1
24.6 µM

---

# Test system: T-47D breast
# assayProcedure: NCI tumour cell line growth inhibition, 48 h
reportedProperty: TGI

// known answers, use as guide
>  <molecule>
COc1ccc2c(c1)CCN1CCc3cc(OC)c(OC)cc3CC21 (stereo not drawn)

>  <result>
> 100 µM

$$$$
>  <molecule>
Nc1ccc(-c2nc3ccccc3[nH]2)c2ccccc12

>  <result>
> 61.6 µM

$$$$

Need TGI, item Fc1ccccc1C1SCc2nc3cc4ccccc4cc3n21 (stereo not drawn)
> 100 µM

---

# System: SR leukemia
# assayProcedure: NCI tumour cell line growth inhibition, 48 h
reportedProperty: TGI

// known answers, use as guide
>  <molecule>
CC(C)(C)OC(=O)NCCC1CN(C(=O)c2ccccc2)c2ccccc21 (stereo unspecified)

>  <TGI>
> 100 µM

$$$$
>  <molecule>
O=C(CC(=O)Nc1ccccc1)N/N=C/c1cc(N=Nc2ccc(Br)cc2)ccc1O

>  <TGI>
9.75 µM

$$$$
>  <molecule>
[N-]=[N+]=C1C(=O)C2CC3CC(C2)CC1C3

>  <TGI>
> 100 µM

$$$$
>  <molecule>
Cn1cncc1CC1COC(=O)C1C(O)c1ccccc1 (stereo unspecified)

>  <TGI>
> 100 µM

$$$$
>  <molecule>
CCCCn1c(=O)c2c(nc3n2CCCN3CCc2ccc(OCC(=O)NCCN(CC)CC)cc2)n(CCCC)c1=O

>  <TGI>
3.02 µM

$$$$

API: value(readout=TGI, system=SR leukemia) for record O=C1NC(=S)N(c2ccccc2)C1=O
> 100 µM

---

# Tested on: OVCAR-3 ovarian
# assayProcedure: NCI tumour cell line growth inhibition, 48 h
Where a SMILES comes first, the peptide text is derived from it. Bridges are numbered along the chain shown (N, C = ends). Roman numbers before positions name the chains, in order. [ ]: non-standard residue; d: D form. The star is where a group is joined. Quinoxaline2carbonyl = O=C(c1cnc2ccccc2n1)*; NMeV = CN[CH](C(=O)O)C(C)C; NMeC = CN[CH](CS)C(=O)O
TGI values for the molecules below.

API: value(readout=TGI, system=OVCAR-3 ovarian) for record CC1NC(=O)C(NC(=O)c2cnc3ccccc3n2)COC(=O)C(C(C)C)N(C)C(=O)C2CSSCC(C(=O)N(C)C(C(C)C)C(=O)OCC(NC(=O)c3cnc4ccccc4n3)C(=O)NC(C)C(=O)N2C)N(C)C1=O (stereo not drawn) (I: Quinoxaline2carbonyl-SA[NMeC][NMeV] / II: Quinoxaline2carbonyl-SA[NMeC][NMeV]; ester I:1-II:C, I:C-II:1; disulfide I:3-II:3; configuration not given here)
> 100 µM

API: value(readout=TGI, system=OVCAR-3 ovarian) for record CCOc1nc(N)nc(C)c1N=Nc1ccc(Cl)cc1
> 100 µM

API: value(readout=TGI, system=OVCAR-3 ovarian) for record O=C1NC(=O)C(c2cccc(Cl)c2)=C1Nc1ccc(O)c(Cl)c1
> 21.9 µM

API: value(readout=TGI, system=OVCAR-3 ovarian) for record C=CCOC(=O)C1C2OC3(C(C(=O)OC)=C2C(=O)OC)c2ccccc2CCC13 (stereo not drawn)
> 10 µM

meta.source: PubChem BioAssay (NCI)
